Reference source for all entries: ChEMBL document CHEMBL4257501

- MEASURED TARGET: Vascular endothelial growth factor receptor 2 (Homo sapiens)
- Sequence (P35968 whole entry): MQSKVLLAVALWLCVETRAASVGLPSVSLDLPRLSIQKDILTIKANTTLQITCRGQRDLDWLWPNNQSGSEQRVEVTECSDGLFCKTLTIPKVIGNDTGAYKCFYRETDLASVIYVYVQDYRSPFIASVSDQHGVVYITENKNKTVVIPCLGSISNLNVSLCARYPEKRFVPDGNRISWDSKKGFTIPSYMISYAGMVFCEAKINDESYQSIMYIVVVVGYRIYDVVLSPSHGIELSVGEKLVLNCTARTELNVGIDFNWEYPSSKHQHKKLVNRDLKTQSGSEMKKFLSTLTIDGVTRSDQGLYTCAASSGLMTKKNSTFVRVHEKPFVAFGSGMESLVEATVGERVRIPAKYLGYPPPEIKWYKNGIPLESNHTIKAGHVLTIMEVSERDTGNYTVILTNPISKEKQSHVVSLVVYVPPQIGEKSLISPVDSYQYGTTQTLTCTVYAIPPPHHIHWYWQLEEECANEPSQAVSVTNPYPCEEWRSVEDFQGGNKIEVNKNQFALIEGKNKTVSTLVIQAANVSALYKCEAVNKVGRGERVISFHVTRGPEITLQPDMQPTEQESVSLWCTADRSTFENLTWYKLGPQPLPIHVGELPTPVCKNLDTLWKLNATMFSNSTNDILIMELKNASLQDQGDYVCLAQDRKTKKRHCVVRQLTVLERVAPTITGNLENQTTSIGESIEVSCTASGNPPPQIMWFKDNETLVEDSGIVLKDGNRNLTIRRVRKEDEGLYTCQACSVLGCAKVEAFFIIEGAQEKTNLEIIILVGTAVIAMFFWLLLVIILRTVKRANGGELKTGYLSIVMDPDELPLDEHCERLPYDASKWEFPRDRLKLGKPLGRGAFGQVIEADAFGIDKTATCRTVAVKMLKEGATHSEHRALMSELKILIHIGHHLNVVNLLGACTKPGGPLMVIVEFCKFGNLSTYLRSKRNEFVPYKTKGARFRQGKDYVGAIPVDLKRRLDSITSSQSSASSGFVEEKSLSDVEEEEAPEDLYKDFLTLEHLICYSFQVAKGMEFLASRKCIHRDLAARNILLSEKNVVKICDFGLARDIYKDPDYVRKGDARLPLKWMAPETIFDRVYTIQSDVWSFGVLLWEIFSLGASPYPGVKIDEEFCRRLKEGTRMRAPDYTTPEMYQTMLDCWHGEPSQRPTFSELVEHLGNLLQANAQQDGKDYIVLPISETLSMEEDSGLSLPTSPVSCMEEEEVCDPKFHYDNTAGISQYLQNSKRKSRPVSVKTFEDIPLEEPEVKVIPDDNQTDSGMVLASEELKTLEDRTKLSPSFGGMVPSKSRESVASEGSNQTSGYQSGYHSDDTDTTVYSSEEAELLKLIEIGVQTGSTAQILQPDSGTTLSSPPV
- METHOD NOTES: biochemical
- Description: Inhibition of recombinant human N-terminal GST-tagged VEGFR2 (789 to end residues) expressed in baculovirus infected Sf9 insect cells using Poly (4:1 Glu,Tyr) as substrate measured after 1 hr by ADP-Glo kinase assay
PROPERTY: pIC50
In simple prose, pIC50 is minus the logarithm base ten of a concentration in moles per litre.

// known answers, use as guide
*Q* Could you share which pIC50 value was measured for "O=C(NC1CCCCC1)c1cc(Oc2ccc(/C=C/c3ccccn3)cc2)ccn1" ?
*A* 6.28

*Q* Could you share which pIC50 value was measured for "O=C(NC1CCCCC1)c1cc(Oc2ccc(/C=C/c3ccncc3)cc2)ccn1" ?
*A* 5.91

*Q* Could you share which pIC50 value was measured for "CNC(=O)c1cc(Oc2ccc(/C=C/c3ccncc3)cc2)ccn1" ?
*A* 6.54

Consider the record given below.
*Q* Could you share which pIC50 value was measured for "CNC(=O)c1cc(Oc2ccc(/C=C/c3ccccn3)cc2)ccn1" ?
*A* 6.06

====

- METHOD NOTES: Selectivity ratio of IC50 for VEGF-stimulated human HepG2 cells to IC50 for VEGF-stimulated human A549 cells
- Type: functional
Ratio IC50 overview
Number only, no unit.

// known answers, use as guide
*Q* Could you share which Ratio IC50 value was measured for "O=C(Nc1ccc(Cl)cc1)c1cc(Oc2ccc(/C=C/c3ccncc3)cc2)ccn1" ?
*A* 0.9

*Q* Could you share which Ratio IC50 value was measured for "O=C(c1cc(Oc2ccc(/C=C/c3ccccn3)cc2)ccn1)N1CCCC1" ?
*A* 1.7

*Q* Could you share which Ratio IC50 value was measured for "CNC(=O)c1cc(Oc2ccc(/C=C/c3ccncc3)cc2)ccn1" ?
*A* 1.4

*Q* Could you share which Ratio IC50 value was measured for "CNC(=O)c1cc(Oc2ccc(/C=C/c3ccccn3)cc2)ccn1" ?
*A* 1.2

*Q* Could you share which Ratio IC50 value was measured for "O=C(Nc1ccc(Cl)cc1)c1cc(Oc2ccc(/C=C/c3ccccn3)cc2)ccn1" ?
*A* 1.9

Continuing:
*Q* Could you share which Ratio IC50 value was measured for "O=C(Nc1ccccc1)c1cc(Oc2ccc(/C=C/c3ccccn3)cc2)ccn1" ?
*A* 1.6

*Q* Could you share which Ratio IC50 value was measured for "O=C(c1cc(Oc2ccc(/C=C/c3ccncc3)cc2)ccn1)N1CCCC1" ?
*A* 2.2

*Q* Could you share which Ratio IC50 value was measured for "COc1ccc(CNC(=O)c2cc(Oc3ccc(/C=C/c4ccccn4)cc3)ccn2)cc1" ?
*A* 0.4

*Q* Could you share which Ratio IC50 value was measured for "O=C(NC1CCCCC1)c1cc(Oc2ccc(/C=C/c3ccncc3)cc2)ccn1" ?
*A* 1.3

*Q* Could you share which Ratio IC50 value was measured for "CC(C)NC(=O)c1cc(Oc2ccc(/C=C/c3ccncc3)cc2)ccn1" ?
*A* 1.6

*Q* Could you share which Ratio IC50 value was measured for "COc1ccc(NC(=O)c2cc(Oc3ccc(/C=C/c4ccccn4)cc3)ccn2)cc1" ?
*A* 1.5

*Q* Could you share which Ratio IC50 value was measured for "O=C(NC1CC1)c1cc(Oc2ccc(/C=C/c3ccccn3)cc2)ccn1" ?
*A* 1.8

*Q* Could you share which Ratio IC50 value was measured for "O=C(NCc1ccccc1)c1cc(Oc2ccc(/C=C/c3ccccn3)cc2)ccn1" ?
*A* 1.5

*Q* Could you share which Ratio IC50 value was measured for "O=C(NC1CC1)c1cc(Oc2ccc(/C=C/c3ccncc3)cc2)ccn1" ?
*A* 2.2

====

pIC50 overview
- Test system: A549
- METHOD NOTES: Antiproliferative activity against VEGF-stimulated human A549 cells after 48 hrs by CCK8 assay
- Format: functional, cell-based
- CONDITION: A549, 48 h
In simple prose, pIC50 is minus the logarithm base ten of a concentration in moles per litre.

*Q* Could you share which pIC50 value was measured for "CNC(=O)c1cc(Oc2ccc(/C=C/c3ccccn3)cc2)ccn1" ?
*A* 4.76

*Q* Could you share which pIC50 value was measured for "O=C(NC1CCCCC1)c1cc(Oc2ccc(/C=C/c3ccccn3)cc2)ccn1" ?
*A* 4.90

*Q* Could you share which pIC50 value was measured for "O=C(NCc1ccccc1)c1cc(Oc2ccc(/C=C/c3ccncc3)cc2)ccn1" ?
*A* 4.77

*Q* Could you share which pIC50 value was measured for "O=C(NC1CC1)c1cc(Oc2ccc(/C=C/c3ccccn3)cc2)ccn1" ?
*A* 4.76

*Q* Could you share which pIC50 value was measured for "O=C(c1cc(Oc2ccc(/C=C/c3ccncc3)cc2)ccn1)N1CCCC1" ?
*A* 4.73

====

IC50 overview
- Test system: HepG2
- METHOD NOTES: Antiproliferative activity against VEGF-stimulated human HepG2 cells after 48 hrs by CCK8 assay
- Type: functional, cell-based
- CONDITION: HepG2, 48 h

// known answers, use as guide
*Q* Could you share which IC50 value was measured for "O=C(NC1CC1)c1cc(Oc2ccc(/C=C/c3ccccn3)cc2)ccn1" ?
*A* 31 µM

*Q* Could you share which IC50 value was measured for "COc1ccc(CNC(=O)c2cc(Oc3ccc(/C=C/c4ccccn4)cc3)ccn2)cc1" ?
*A* 26 µM

*Q* Could you share which IC50 value was measured for "COc1ccc(CNC(=O)c2cc(Oc3ccc(/C=C/c4ccncc4)cc3)ccn2)cc1" ?
*A* > 100 µM

*Q* Could you share which IC50 value was measured for "O=C(NC1CC1)c1cc(Oc2ccc(/C=C/c3ccncc3)cc2)ccn1" ?
*A* 77.5 µM

*Q* Could you share which IC50 value was measured for "COc1ccc(NC(=O)c2cc(Oc3ccc(/C=C/c4ccccn4)cc3)ccn2)cc1" ?
*A* 30 µM

Continuing:
*Q* Could you share which IC50 value was measured for "O=C(NCc1ccccc1)c1cc(Oc2ccc(/C=C/c3ccccn3)cc2)ccn1" ?
*A* 27.9 µM

*Q* Could you share which IC50 value was measured for "CNC(=O)c1cc(Oc2ccc(/C=C/c3ccncc3)cc2)ccn1" ?
*A* 18.2 µM

*Q* Could you share which IC50 value was measured for "O=C(Nc1ccc(Cl)cc1)c1cc(Oc2ccc(/C=C/c3ccccn3)cc2)ccn1" ?
*A* 31.3 µM

====

- System: A549
- METHOD NOTES: Antiproliferative activity against VEGF-stimulated human A549 cells after 48 hrs by CCK8 assay
- Type: functional, cell-based
- CONDITION: A549, 48 h
IC50 overview
# unit: µM | format: bare number

*Q* Could you share which IC50 value was measured for "O=C(Nc1ccc(Cl)cc1)c1cc(Oc2ccc(/C=C/c3ccncc3)cc2)ccn1" ?
*A* 62.1

*Q* Could you share which IC50 value was measured for "O=C(Nc1ccccc1)c1cc(Oc2ccc(/C=C/c3ccncc3)cc2)ccn1" ?
*A* 79.7

*Q* Could you share which IC50 value was measured for CNC(=O)c1cc(Oc2ccc(NC(=O)Nc3ccc(Cl)c(C(F)(F)F)c3)cc2)ccn1 [SORAFENIB] ?
*A* 19.3

*Q* Could you share which IC50 value was measured for "O=C(NC1CCCCC1)c1cc(Oc2ccc(/C=C/c3ccncc3)cc2)ccn1" ?
*A* 16.8

*Q* Could you share which IC50 value was measured for "O=C(NCc1ccc(F)cc1)c1cc(Oc2ccc(/C=C/c3ccncc3)cc2)ccn1" ?
*A* 18.2

*Q* Could you share which IC50 value was measured for "CNC(=O)c1cc(Oc2ccc(/C=C/c3ccncc3)cc2)ccn1" ?
*A* 13.2

*Q* Could you share which IC50 value was measured for "COc1ccc(NC(=O)c2cc(Oc3ccc(/C=C/c4ccccn4)cc3)ccn2)cc1" ?
*A* 20

*Q* Could you share which IC50 value was measured for "O=C(c1cc(Oc2ccc(/C=C/c3ccccn3)cc2)ccn1)N1CCCC1" ?
*A* 15.6

Continuing:
*Q* Could you share which IC50 value was measured for "O=C(NC1CC1)c1cc(Oc2ccc(/C=C/c3ccncc3)cc2)ccn1" ?
*A* 35.5

*Q* Could you share which IC50 value was measured for "CC(C)NC(=O)c1cc(Oc2ccc(/C=C/c3ccccn3)cc2)ccn1" ?
*A* 21.4

*Q* Could you share which IC50 value was measured for "O=C(Nc1ccc(Cl)cc1)c1cc(Oc2ccc(/C=C/c3ccccn3)cc2)ccn1" ?
*A* 16.2

*Q* Could you share which IC50 value was measured for "O=C(NCc1ccccc1)c1cc(Oc2ccc(/C=C/c3ccccn3)cc2)ccn1" ?
*A* 18.8

*Q* Could you share which IC50 value was measured for "COc1ccc(CNC(=O)c2cc(Oc3ccc(/C=C/c4ccncc4)cc3)ccn2)cc1" ?
*A* 19.3

*Q* Could you share which IC50 value was measured for "CC(C)NC(=O)c1cc(Oc2ccc(/C=C/c3ccncc3)cc2)ccn1" ?
*A* 20.6

*Q* Could you share which IC50 value was measured for "O=C(Nc1ccccc1)c1cc(Oc2ccc(/C=C/c3ccccn3)cc2)ccn1" ?
*A* 19.1

*Q* Could you share which IC50 value was measured for "COc1ccc(NC(=O)c2cc(Oc3ccc(/C=C/c4ccncc4)cc3)ccn2)cc1" ?
*A* 25.6

*Q* Could you share which IC50 value was measured for "COc1ccc(CNC(=O)c2cc(Oc3ccc(/C=C/c4ccccn4)cc3)ccn2)cc1" ?
*A* 63.6

====

- Tested on: HepG2
- METHOD NOTES: Antiproliferative activity against VEGF-stimulated human HepG2 cells after 48 hrs by CCK8 assay
- Assay type: functional, cell-based
- CONDITION: HepG2, 48 h
PROPERTY: pIC50
In simple prose, pIC50 is minus the logarithm base ten of a concentration in moles per litre.

*Q* Could you share which pIC50 value was measured for "O=C(NCc1ccc(F)cc1)c1cc(Oc2ccc(/C=C/c3ccncc3)cc2)ccn1" ?
*A* 4.43

Continuing:
*Q* Could you share which pIC50 value was measured for "O=C(NC1CCCCC1)c1cc(Oc2ccc(/C=C/c3ccncc3)cc2)ccn1" ?
*A* 4.65

*Q* Could you share which pIC50 value was measured for "CNC(=O)c1cc(Oc2ccc(/C=C/c3ccccn3)cc2)ccn1" ?
*A* 4.67
